// reported melting point for each item listed

# count of solved cases: 5
Q. Name the reported melting point value associated with the compound `O=C(O)CCCn1ccnc1`
A. 125 to 126 °C

Q. And O=C(O)c1ccccc1COC1CCn2c(CCc3ccccc3)nc3cccc1c32 (stereo not given) ?
A. 154 to 155 °C

Q. Query `CCOCc1cc2ccccc2oc1=Nc1ccc(CC)cc1` next
A. 104 to 105 °C

Q. Ok, now `CCCOc1ccc(-c2scc(-c3ccccc3Cl)c2CC(=O)OC)cc1`
A. 81 to 82 °C

Q. Consider next the compound `CC(C)C(=C=O)NC(=O)Nc1ccc([N+](=O)[O-])cc1O` in the same way.
A. 168 to 169 °C

Next:
Q. Which melting point reading was recorded for the compound `O=C(NC(=S)Nc1cc(Cl)cc(C(F)(F)F)c1Cl)c1c(F)cccc1F` ?
A. 136 to 141 °C

Q. Please give the result for `O=C(Nc1cc(F)c(Cl)nc1C1CCN(CC=Cc2ccc(Cl)cc2)CC1)c1ccnc(Cl)c1` too.
A. 71 to 73 °C

Q. Lookup CC1(CC(=O)O)CCc2ccc3ccccc3c2C1=O (stereo not given)
A. 80 to 83 °C

Q. Next compound: `O=C(O)c1cnc2cc(OCc3ccccc3)c(OCc3ccccc3)cn2c1=O`
A. 208 °C

Q. Input CC(COc1ccccc1)NC(=Nc1cccnc1)NC#N (stereo not given)
A. 130 to 133 °C

====

MEASURED METRIC: melting point

Q. Name the reported melting point value associated with the compound `O=C1NC(=S)C(=Cc2cc(O)c(O)c([N+](=O)[O-])c2)O1`
A. 245 °C

Q. One more compound: `O=C(Nc1nc(-c2ccccc2)cs1)Nc1nc(-c2ccccc2)cs1`
A. 285 to 287 °C

Q. Please give the result for `COC(=O)Cc1ccc(OCc2ccc3ccccc3n2)c(OC)c1` too.
A. 69 °C

Q. And for `COCN1C(C)=C(C(=O)O)C(c2ccccc2C(F)(F)F)C(C(=O)O)=C1C` ?
A. 172 to 173 °C

Q. `O=C(O)COc1cccc2c1CCc1sc(S(=O)(=O)C(c3ccc(F)cc3)c3ccc(F)cc3)nc1-2` ?
A. 186 to 188 °C

Q. Entry CC(C(=O)O)n1cc(-c2ccccc2)c(=O)c(-c2cccc(C(F)(F)F)c2)c1 (centres undefined) please
A. 236 to 237 °C

Q. Entry to check: `COC(=O)CCCC#Cc1cc(Cl)ccc1NS(=O)(=O)c1ccc2nc(N)sc2c1`
A. 61 to 65 °C

Q. Also `N#Cc1ccccc1Cn1cc(-c2ccnc(NCCCO)n2)n(-c2ccc(F)cc2)c1=O` ?
A. 166 to 167 °C

Next, consider the following compound.
Q. Which measured melting point value corresponds to `Cn1nc(-c2cccnc2)c(C=Cc2ccccc2C(=O)O)c1Cl` ?
A. 183 to 185 °C

====

MEASURED METRIC: melting point

Here are 2 compounds together with their reported answers.
Q. Consider the compound Cc1ccccc1S(=O)(=O)NC1CCc2sccc2C1 (stereo unspecified) and give its measured melting point.
A. 130 to 132 °C

Q. How about this compound: CCCCCCC(CO)c1nc([N+](=O)[O-])c[nH]1 (stereo unspecified)
A. 83 to 84 °C

Further cases:
Q. Return reported melting point; argument: `O=C(N[C@@H](Cc1c[nH]c2ccccc12)C(=O)O)c1cccc(Cl)c1`
A. 160 to 161 °C

Q. Consider next the compound `Cc1nc2c(N)nc3c(c2n1CC(C)C)CCNC3` in the same way.
A. 226 to 230 °C

Q. Also `Cc1nc(N)nc(N)c1-c1cc(Cl)cc(Cl)c1` , if possible.
A. 242 to 244 °C

Q. And the next one, CCNC(=O)C(C)n1cc(C)c(-c2ccccc2)n1 (stereo unspecified) ?
A. 78 to 79 °C

====

MEASURED METRIC: melting point

Field: example entries. Status: answers known.
Q. Which melting point is listed for `N#Cc1cccnc1N1CCN(CC(=O)Nc2ccc(F)c(Cl)c2)CC1` ?
A. 137 to 140 °C

Q. Do the same for `COC(=O)C[C@H](Br)C(N)=O` please
A. 82 to 84 °C

Q. Try the compound `Cc1ccccc1C(=NO)C(=O)OC(C)C`
A. 77 to 78 °C

Q. Please do the same for `CS(=O)(=O)Nc1cccc(Nc2nc(NCCc3ccccn3)c3nc[nH]c3n2)c1` as well.
A. 199 to 202 °C

Q. Likewise for Cc1cc2c(c(C)c1N)C(c1ccc(C(C)C)cc1)CS2 (stereo unspecified) ?
A. 121 to 122 °C

Q. Note, next up: `OCc1cccc(-c2ccc3nc(-c4coc5ccccc45)cn3c2)c1`
A. 150 to 152 °C

The record that follows has no melting point shown yet.
Q. What measured melting point goes with `CC(C)(CCCCC=CCCCCC(C)(C)CC(=O)O)CC(=O)O` ?
A. 100 to 101 °C

====

MEASURED METRIC: melting point

Q. Suppose we examine the compound C=Cn1cc(C(=O)O)c(=O)c2cc(F)c(N3CCC(NC)C3)nc21 (centres undefined) ; what melting point value has been reported?
A. 160 to 161 °C

Q. Request: `Oc1ccc(-c2nc3cc(O)ccc3o2)cc1`
A. 264 to 267 °C

Q. Repeat for the following compound: `O=C(CCCCCl)c1cc2c3c(c1)CCC(=O)N3CCC2`
A. 83 to 84 °C

Q. Follow-up item: `CCn1c(=O)c2c(nc(/C=C/c3ccc(OCC(=O)c4ccccc4)c(OC)c3)n2C)n(CC)c1=O`
A. 180 to 182 °C

Q. Moving on to `O=C1c2ccccc2C(=O)c2c1nc1ccc(Cl)cn21`
A. > 300 °C

Now look at this one.
Q. Tell me the measured melting point of `CCC(=O)Oc1cccc2c1C(=O)c1c(OC(=O)CC)cccc1C2C(=O)CC(C)C` , please.
A. 124 °C

====

MEASURED METRIC: melting point

The cases that follow already have their melting point on record.
Q. Need melting point, item `CCOC(=O)C1CCN(c2cc(C)nc3c2c(C)cn3-c2c(C)cc(Cl)cc2C)CC1`
A. 140 to 142 °C

Q. Another molecule to check: CC(C)(C)C1=CC(c2cccc([N+](=O)[O-])c2)C2=C(CCCC2=O)N1 (centres undefined)
A. 180 to 182 °C

Q. Thanks! And Nc1nc(-c2ccccc2)c2ncn(C3OC(CO)C(O)C3O)c2n1 (centres undefined) ?
A. 187 to 190 °C

Others:
Q. For the molecule `Nc1cc(O)cc2cc(-c3ccc(O)cc3)oc12` , what melting point is on record?
A. 251 to 254 °C

Q. Same again, this time with `CC(C)(C)c1ccc(-c2cc(N3CCOCC3)cc(=O)o2)cc1`
A. 230 to 232 °C

====

MEASURED METRIC: melting point

Q. Give the measured melting point of COc1ccc(C2Sc3c(ccc4ccccc34)N(CCN(C)C)C(=O)C2O)cc1 (stereo not given) .
A. 160 to 161 °C

Further cases:
Q. I would be grateful if you could share the reported melting point for `CC(C)(O)CC(=O)N[C@H]1CC[C@H](CCN2CCC(c3cccc4c3CCO4)CC2)CC1` .
A. 168 °C

Q. Another molecule to check: `Nc1c2c(=O)c3ccccc3c(=O)c2c(N)c2c(=O)n(CCCCCCO)c(=O)c12`
A. 210 to 211 °C

Q. Also need `CCOC(=O)CCCn1c(NC(=O)c2cccs2)nc2cc(C(=O)N(C)C3CCCCC3)ccc21` , thanks.
A. 82 to 84 °C

Q. Note, next up: `NC(=O)c1nc(-c2cccc(O)c2)nc2c1[nH]c(=O)n2[C@H]1CC[C@H](N)CC1`
A. 299 to 301 °C

Q. Let us now turn to `COc1ccc(CCNC(=S)c2ccccc2C)cc1OC`
A. 94 to 95 °C

====

MEASURED METRIC: melting point

Q. Recorded melting point of `CCOC(=O)c1cnc(Cl)c(N)c1NC` , please.
A. 50 to 52 °C

Q. Next compound: CC(=O)N1OCC(=S)NC1c1ccccc1 (stereo not given)
A. 172 to 174 °C

Q. # iterate: `N#Cc1nn(-c2c(Cl)cc(C(F)(F)F)cc2Cl)c(N)c1-c1cccc(Cl)c1`
A. 161 to 162 °C

Q. Next record, please: `COc1ccc2cc(Nc3ccc(O)cc3)ccc2c1`
A. 153 to 154 °C

Q. Now consider `CC(C)(C)OC(=O)N(c1ccccc1)S(=O)(=O)c1ccc2c(c1)CCC(C)(C)O2` and answer again.
A. 117 to 120 °C

Q. Record: `CC(=O)Oc1c(C)cc(Oc2ccc3nc(CO)n(C)c3n2)c(C)c1C`
A. 179 to 180 °C

====

MEASURED METRIC: melting point

Sample answers from the record:
Q. Looking for the measured melting point of `Nc1cc(CO)cc([N+](=O)[O-])c1-c1ccc(O)cc1` , can you help?
A. 158 °C

Q. And `Nc1ncccc1-c1nc2cccnc2n1-c1ccc(CNC(=O)c2ccccc2)cc1` ?
A. 226 to 228 °C

Next:
Q. I am curious: what melting point value has been reported for `CS(=O)(=O)c1ccc(-n2cc(-c3ccc(F)cc3)nc2-c2ccccn2)cc1` ?
A. 88 to 91 °C

Q. Next: `CCN1C(=O)C(C)(C)c2ccc(C(=O)Nc3ccc(C#N)cc3)cc21`
A. 211 to 213 °C

Q. // same read-out, input: `Clc1ccc2c(c1)Nc1cc(Cl)ccc1OCO2`
A. 194 to 196 °C

Q. Now give it for `Oc1ccc(Br)cc1Cc1ncc[nH]1` too.
A. 163 to 169 °C

Q. Also, Cc1c(NC(=O)CC(C)(C)C)cc2c(c1C)OC(C)(C)C2c1ccc(C=O)cc1 (stereo not given) please.
A. 169 to 170 °C

Q. What do we get for `CC1=C(C(=O)Nc2cc(C(=O)OC(C)C)c(C)cc2F)SCCO1` ?
A. 119 to 122 °C

Q. Moving on to `CCOC(=O)NCCN1CCC(n2c(=O)[nH]c3cc(Cl)ccc32)CC1`
A. 188 °C

Q. Okay, and `CC(=O)OCCN1CCSc2ccc(Nc3ncc(Cl)c(N[C@@H]4CCCC[C@H]4NS(C)(=O)=O)n3)cc2C1` ?
A. 85 to 90 °C

Q. Consider next the compound `CCCCCCCCCCCCCCc1cc(C(=O)OCC)c[nH]1` in the same way.
A. 59 to 62 °C

Q. Would you mind doing `Cc1cn(-c2nc(C3=Nc4ccc(-c5ccccc5F)cc4NC(=O)C3)cs2)cn1` as well?
A. 229 °C

Q. Repeat with `Cn1c(C(F)(F)F)ccc(-c2cc3c(cc2F)OCC(=O)N3)c1=O`
A. 216 to 218 °C

Q. Follow-up entry: COC1C=C(C)C(=O)CC(C)(C)C1OC(=O)c1ccccc1C(=O)O (stereo not given)
A. 158 °C

Q. Follow-up item: `CCOC(=O)CNC(=O)c1ccc(-c2ccc([N+](=O)[O-])cc2)cc1`
A. 145 to 148 °C

Q. Item: `CC(C)(CCC(=O)N[C@H](Cc1ccc(-c2ccccc2)cc1)C(=O)NCCCCNc1ncccn1)C(=O)O`
A. 85 to 98 °C

Q. Then this compound: `O=C(N[C@H]1CC[C@H](CCN2CCC(c3cccc4c3CCO4)CC2)CC1)c1ccc(F)cc1`
A. 213 °C

Q. Another compound: O=C(c1sc2c(ccc(=O)n2-c2ccccc2)c1Br)N1CC(OC2CCCCO2)C1 (stereo not given)
A. 162 °C

Q. Then `COC(=O)c1ccc(Cc2cn(C)c3ccc(CCNC(=O)N4CCOCC4)cc23)c(OC)c1` ?
A. 160 to 161 °C

Q. Cool, now `CCCc1nc2c(N)nc3cc(OCCOCCCl)ccc3c2s1`
A. 101 to 103 °C
